Below, each entry is listed with its recorded IC50.
# Test system: MV-4-11 cells
# Test method notes: Inhibition of MV-4-11 cell proliferation (MTS, 7 days)
# Assay type: cell-based
# Settings: Homo sapiens, MV4-11, Table 4, values in μM, read-out: Inhibitory Activity of Compounds on Cell Proliferation MV-4-11 IC50
# Protocol: MV-4-11 cells were cultured in IMDM with 10% fetal bovine serum, collected, and diluted to the appropriate cell concentration for a 7-day treatment period. […] The absorbance at 490 nm was measured using a microplate reader, with the absorbance at 690 nm as the background value. The final data was calculated as OD490-OD690. The inhibition rate of the compounds was calculated using the formula: […] The IC50 values for proliferation inhibition were calculated using GraphPad Prism 5.0. […]

Some solved cases for reference:
CN(Cc1cnc(-c2ccc(Cl)cc2)o1)c1cccc2c1C(=O)N(C1CCC(=O)NC1=O)C2=O (stereo not drawn) [Example Ctrl-3, reference compound]	1 to 20 µM
O=C1CCC(N2C(=O)c3cccc(NCc4cnc(-c5ccc(Cl)cc5)o4)c3C2=O)C(=O)N1 (stereo not drawn)	< 1 µM

Known value: MV-4-11 cells IC50 of the molecule O=CN(Cc1cnc(-c2ccc(Cl)cc2)o1)c1cccc2c1C(=O)N(C1CCC(=O)NC1=O)C2=O (stereo not drawn) [Example Ctrl-2, reference compound] equals 1 to 20 µM

----------
# Test system: MV-4-11 cells
# Test method notes: Inhibition of MV-4-11 cell proliferation (MTS, 7 days)
# Type: cell-based
# Settings: Homo sapiens, MV4-11, 168 h, 7 days, MTS, Table 3, read-out: MV-4-11 Cells Inhibition Activity IC50
Readout type: IC50

O=C1CCC(N2C(=O)c3cccc(NCc4cnc(-c5cc(Cl)cc(Cl)c5)o4)c3C2=O)C(=O)N1 (stereo not shown)	< 1000 nM
O=C1CCC(N2C(=O)c3cccc(NCc4cnc(-c5ccc(C(F)(F)F)cc5)o4)c3C2=O)C(=O)N1 (stereo not shown)	< 1000 nM
O=C1CCC(N2C(=O)c3cccc(NCc4cnc(C5CCN(C(=O)c6ccc(F)cc6)CC5)o4)c3C2=O)C(=O)N1 (stereo not shown)	1000 to 20000 nM
O=C1CCC(N2C(=O)c3cccc(NCc4nnc(-c5ccccc5)s4)c3C2=O)C(=O)N1 (stereo not shown)	1000 to 20000 nM
O=C1CCC(N2C(=O)c3cccc(NCc4cnc(-c5ccc(O[C@H]6CCOC6)cc5)o4)c3C2=O)C(=O)N1 (stereo partly shown)	< 1000 nM

Value of IC50 reported for the compound COc1ccc(-c2ncc(CNc3cccc4c3C(=O)N(C3CCC(=O)NC3=O)C4=O)s2)c(OC)c1 (stereo not shown) is < 1000 nM

Value of IC50 reported for the compound COc1ccc(-c2ncc(CNc3cccc4c3C(=O)N(C3CCC(=O)NC3=O)C4=O)o2)cc1 (stereo not shown) is < 1000 nM

----------
# Tested on: MV-4-11 cells
# Test method notes: Inhibition of MV-4-11 cell proliferation (MTS, 7 days)
# Format: cell-based
# Settings: Homo sapiens, MV4-11, positive compounds, read-out: IC50 in MV-4-11 acute leukemia cells
pIC50: −log10 of the molar value.
Readout type: pIC50

Some solved cases for reference:
Nc1cccc2c1CN(C1CCC(=O)NC1=O)C2=O (stereo not shown) [Lenalidomide, reference compound]	< 4.70
O=C1CCC(N2Cc3c(OCc4ccc(CN5CCOCC5)cc4)cccc3C2=O)C(=O)N1 (stereo not shown) [CC-220, reference compound]	< 4.70
Cc1nc2cccc(N)c2c(=O)n1C1CCC(=O)NC1=O (stereo not shown) [CC-122, reference compound]	< 4.70

Value of pIC50 reported for the compound Nc1cccc2c1C(=O)N(C1CCC(=O)NC1=O)C2=O (stereo not shown) [Pomalidomide, reference compound] is < 4.70

----------
Below, each entry is listed with its recorded IC50.
# System: MV-4-11 cells
# Test method notes: Inhibition of MV-4-11 cell proliferation (MTS, 7 days)
# Assay type: cell-based
# Settings: Homo sapiens, MV4-11, 168 h, 7 days, MTS, Table 3, read-out: MV-4-11 Cells Inhibition Activity IC50

Some solved cases for reference:
O=C1CCC(N2C(=O)c3cccc(NCc4nnc(-c5ccccc5)o4)c3C2=O)C(=O)N1 (stereo not drawn)	1 to 20 µM
O=C1CCC(N2C(=O)c3cccc(NCc4cnc(-c5ccc(O[C@@H]6CCOC6)cc5)o4)c3C2=O)C(=O)N1 (stereo partly drawn)	< 1 µM
CC(C)(C)C(=O)OCN1C(=O)CCC(N2C(=O)c3cccc(NCc4cnc(-c5ccc(C(F)(F)F)cc5)s4)c3C2=O)C1=O (stereo not drawn)	< 1 µM

Value of IC50 reported for the molecule O=C1CCC(N2C(=O)c3cccc(NCc4cnc(-c5ccc(OC6CC6)cc5)o4)c3C2=O)C(=O)N1 (stereo not drawn) is < 1 µM

Value of IC50 reported for the molecule O=C1CCC(N2C(=O)c3cccc(NCc4cnc(C5CCN(C(=O)C6(c7ccc(F)cc7)CCC6)CC5)o4)c3C2=O)C(=O)N1 (stereo not drawn) is < 1 µM

Value of IC50 reported for the molecule O=C1CCC(N2C(=O)c3cccc(NCc4cnc(-c5ccc(OC6CC6)cc5)s4)c3C2=O)C(=O)N1 (stereo not drawn) is 1 to 20 µM

----------
# System: MV-4-11 cells
# Test method notes: Inhibition of MV-4-11 cell proliferation (MTS, 7 days)
# Assay type: cell-based
# Settings: Homo sapiens, MV4-11, 168 h, 7 days, MTS, Table 3, read-out: MV-4-11 Cells Inhibition Activity IC50
pIC50: −log10 of the molar value.
Below, each entry is listed with its recorded pIC50.

Some solved cases for reference:
O=C1CCC(N2C(=O)c3cccc(NCc4cnc(-c5cccc(OC(F)(F)F)c5)o4)c3C2=O)C(=O)N1 (stereo not shown) [Example 55]	> 6.00
COCCOc1ccc(-c2ncc(CNc3cccc4c3C(=O)N(C3CCC(=O)NC3=O)C4=O)o2)cc1 (stereo not shown) [Example 52]	> 6.00
O=C1CCC(N2C(=O)c3cccc(NCc4ncc(-c5ccccc5F)o4)c3C2=O)C(=O)N1 (stereo not shown) [Example 95]	< 4.70
Cc1ccc(-c2ncc(CNc3cccc4c3C(=O)N(C3CCC(=O)NC3=O)C4=O)s2)cc1 (stereo not shown) [Example 29]	> 6.00
Nc1cccc2c1CN(C1CCC(=O)NC1=O)C2=O (stereo not shown) [Lenalidomide, reference compound]	< 4.70
O=C1CCC(N2C(=O)c3cccc(NCc4cnc(-c5ccccc5F)o4)c3C2=O)C(=O)N1 (stereo not shown) [Example 71]	> 6.00
O=C1CCC(N2C(=O)c3cccc(NCc4cnc(-c5ccc(OC6CCOCC6)cc5)o4)c3C2=O)C(=O)N1 (stereo not shown) [Example 53]	> 6.00
COCCOc1ccc(-c2ncc(CNc3cccc4c3C(=O)N(C3CCC(=O)NC3=O)C4=O)s2)cc1 (stereo not shown) [Example 104]	> 6.00

Value of pIC50 reported for the compound N#Cc1cccc(-c2ncc(CNc3cccc4c3C(=O)N(C3CCC(=O)NC3=O)C4=O)s2)c1 (stereo not shown) [Example 30] is 4.70 to 6.00

Value of pIC50 reported for the compound CC(C)(C)C(=O)N1CCC(c2ncc(CNc3cccc4c3C(=O)N(C3CCC(=O)NC3=O)C4=O)o2)CC1 (stereo not shown) [Example 9] is > 6.00

Value of pIC50 reported for the compound O=C1CCC(N2C(=O)c3cccc(NCc4cnc(C5CCN(C(=O)c6ccc(OC(F)(F)F)cc6)CC5)o4)c3C2=O)C(=O)N1 (stereo not shown) [Example 7] is 4.70 to 6.00

Value of pIC50 reported for the compound O=C1CCC(N2C(=O)c3cccc(NCc4cnc(-c5cccc(Cl)c5Cl)o4)c3C2=O)C(=O)N1 (stereo not shown) [Example 74] is 4.70 to 6.00

Value of pIC50 reported for the compound O=C1CCC(N2C(=O)c3cccc(NCc4cnc(C5CCN(C(=O)C67CC8CC(CC(C8)C6)C7)CC5)o4)c3C2=O)C(=O)N1 (stereo not shown) [Example 3] is 4.70 to 6.00

Value of pIC50 reported for the compound N#Cc1ccc(N2CCN(Cc3ncc(CNc4cccc5c4C(=O)N(C4CCC(=O)NC4=O)C5=O)o3)CC2)c(F)c1 (stereo not shown) [Example 81] is 4.70 to 6.00

Value of pIC50 reported for the compound O=C1CCC(N2C(=O)c3cccc(NCc4cnc(-c5ccc(C(F)(F)F)cc5)s4)c3C2=O)C(=O)N1 (stereo not shown) [Example 37] is > 6.00

Value of pIC50 reported for the compound O=C1CCC(N2C(=O)c3cccc(NCc4ncc(-c5ccc(F)cc5)s4)c3C2=O)C(=O)N1 (stereo not shown) [Example 34] is > 6.00

Value of pIC50 reported for the compound O=C1CCC(N2C(=O)c3cccc(NCc4cnc(-c5ccccc5OC5COC5)o4)c3C2=O)C(=O)N1 (stereo not shown) [Example 101] is 4.70 to 6.00

Value of pIC50 reported for the compound O=C1CCC(N2C(=O)c3cccc(NCc4cnc(-c5ccccc5Cl)s4)c3C2=O)C(=O)N1 (stereo not shown) [Example 69] is > 6.00

Value of pIC50 reported for the compound O=C1CCC(N2C(=O)c3cccc(NCc4cnc(C5CCN(C(=O)c6ccc(Cl)cc6Cl)CC5)o4)c3C2=O)C(=O)N1 (stereo not shown) [Example 8] is > 6.00
